- procedure-text: Cytotoxicity in mock-infected MT4 CMV-EGFP cells (GFP fluorescence)
- Type: cell-based
- measurement-context: human, 50% cytotoxic concentration as negative log
measure: CC50 at 3 days (µM)
Give bare numbers, in µM.

Some solved cases for reference:
# compound, CC50 at 3 days, µM
data = [
    ("Cc1cccc2c(=O)n(-c3ccc([N+](=O)[O-])cc3)c3c(nc4ccc(O)cn43)c12 [Compound 110]", 5.37),
    ("CCNCCNc1ccc2nc3c4ccccc4c(=O)n(-c4ccc([N+](=O)[O-])cc4)c3n2n1 [Compound 128]", 0.851),
    ("CN(C)CCCOc1ccc2nc3c4ccccc4c(=O)n(-c4ccc([N+](=O)[O-])cc4)c3n2c1 [Compound 82]", 8.91),
    ("Nc1ccc2nc3c4ccccc4c(=O)n(-c4ccc(Cl)nc4)c3n2c1 [Compound 53]", 4.57),
    ("O=c1c2ccccc2c2nc3ccc(NCCNCCO)nn3c2n1-c1ccc([N+](=O)[O-])cc1 [Compound 130]", 3.55),
    ("CN(C)CCNc1ccc2nc3c4ccccc4c(=O)n(-c4ccc([N+](=O)[O-])cc4)c3n2n1 [Compound 122]", 0.0692),
]

Consider the record given below.
The measured CC50 at 3 days associated with CN(C)/C=N/c1ccc2nc3c4ccccc4c(=O)n(-c4ccc(Cl)nc4)c3n2c1 [Compound 84] reads 16.6
